- EXPERIMENT_DESCRIPTION: self-splicing fitness, log relative to wild type (ln ratio); higher = more splicing; Tetrahymena group I intron in knt gene, E. coli kanamycin selection, DiMSum; sequences stand for … in CUCUCU…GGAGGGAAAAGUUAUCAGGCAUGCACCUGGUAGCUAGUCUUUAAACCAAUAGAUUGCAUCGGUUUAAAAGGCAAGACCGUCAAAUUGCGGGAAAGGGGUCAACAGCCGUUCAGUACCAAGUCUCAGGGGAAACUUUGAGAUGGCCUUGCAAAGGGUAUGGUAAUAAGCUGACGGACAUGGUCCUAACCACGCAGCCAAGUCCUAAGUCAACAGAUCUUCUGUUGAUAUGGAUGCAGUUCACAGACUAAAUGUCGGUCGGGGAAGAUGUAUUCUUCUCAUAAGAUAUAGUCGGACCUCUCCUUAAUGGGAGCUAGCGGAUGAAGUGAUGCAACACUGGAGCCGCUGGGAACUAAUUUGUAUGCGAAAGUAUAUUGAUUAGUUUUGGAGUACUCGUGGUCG;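 also: selection with 25 µg/mL kanamycin versus none on LB agar overnight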
- APPLIED_CONDITIONS: 37 °C
Binary classification by self-splicing fitness (ln), with -2 as an inclusive lower bound for 1 (yes); all other cases are 0 (no).

>>> df
     biopolymer_sequence    group
 0  GCCUAGCAAUAUUACGGGCU   0 (no)
 1  UUAAAGCAAUAUUACGACGA  1 (yes)
 2  CGAAAGCAAUAUUACGCUCG   0 (no)
 3  UAAAAGCAAUAUUACGGAUU  1 (yes)
 4  UCCAAGCAAUAUUACGAGUU  1 (yes)
 5  AUGCAGCAAUAUUACGACUG   0 (no)
 6  CAUUAGCAAUAUUACGGUUU   0 (no)
 7  CUAAAGCAAUAUUACGUAAC  1 (yes)
 8  UUACAGCAAUAUUACGUCUA  1 (yes)
 9  UUACAGCAAUAUUACGUUGC   0 (no)
10  UCCCAGCAAUAUUACGCGCA  1 (yes)
11  CCAGAGCAAUAUUACGGCUU  1 (yes)
12  UGGGAGCAAUAUUACGUGUG   0 (no)
13  GCAGAGCAAUAUUACGAUCC  1 (yes)
14  ACGCAGCAAUAUUACGUACG  1 (yes)
15  CAUUAGCAAUAUUACGAGGU   0 (no)

====

Items are presented alongside their recorded self-splicing fitness (ln).
- EXPERIMENT_DESCRIPTION: self-splicing fitness, log relative to wild type (ln ratio); higher = more splicing; Tetrahymena group I intron in knt gene, E. coli kanamycin selection, DiMSum; sequences stand for … in CUCUCU…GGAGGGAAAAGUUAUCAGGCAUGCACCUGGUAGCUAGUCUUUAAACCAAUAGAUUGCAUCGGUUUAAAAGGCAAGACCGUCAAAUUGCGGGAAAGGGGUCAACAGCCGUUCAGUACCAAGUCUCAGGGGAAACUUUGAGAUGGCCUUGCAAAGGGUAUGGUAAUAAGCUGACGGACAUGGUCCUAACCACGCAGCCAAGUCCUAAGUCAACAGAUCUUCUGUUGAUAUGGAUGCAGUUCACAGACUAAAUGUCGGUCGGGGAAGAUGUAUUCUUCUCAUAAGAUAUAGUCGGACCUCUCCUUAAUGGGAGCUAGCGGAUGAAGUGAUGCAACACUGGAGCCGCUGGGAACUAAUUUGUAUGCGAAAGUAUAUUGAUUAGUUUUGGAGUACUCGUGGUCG
- APPLIED_CONDITIONS: 37 °C
REPORTED_ENDPOINT: self-splicing fitness (ln)

>>> print(df.to_string())
     biopolymer_sequence           reported_endpoint  value_observed
 0  UAGCAGCAAUAUUACGAGCU  self-splicing fitness (ln)          -0.893
 1  UUGUAGCAAUAUUACGCAUA  self-splicing fitness (ln)           -1.31
 2  UCCAAGCAAUAUUACGUGCA  self-splicing fitness (ln)           0.425
 3  GCCUAGCAAUAUUACGGAGA  self-splicing fitness (ln)           -1.06
 4  UUAGAGCAAUAUUACGUCCU  self-splicing fitness (ln)           -1.87
 5  GAACAGCAAUAUUACGUAAA  self-splicing fitness (ln)           0.234
 6  GCGUAGCAAUAUUACGAUUU  self-splicing fitness (ln)          -0.282
 7  UACUAGCAAUAUUACGCUAA  self-splicing fitness (ln)          -0.697
 8  CCGCAGCAAUAUUACGGCUA  self-splicing fitness (ln)           -2.61
 9  GAUCAGCAAUAUUACGCAUA  self-splicing fitness (ln)         -0.0106
10  CACAAGCAAUAUUACGUCUA  self-splicing fitness (ln)           -1.26
11  AAACAGCAAUAUUACGCGAG  self-splicing fitness (ln)           -1.12
12  GCCCAGCAAUAUUACGCAGA  self-splicing fitness (ln)           -3.47
13  AACCAGCAAUAUUACGACGA  self-splicing fitness (ln)           -0.38
14  UUCGAGCAAUAUUACGUUUG  self-splicing fitness (ln)           -2.99
15  AAGUAGCAAUAUUACGUACA  self-splicing fitness (ln)          -0.759

====

Items are presented alongside their recorded self-splicing fitness (ln).
- EXPERIMENT_DESCRIPTION: self-splicing fitness, log relative to wild type (ln ratio); higher = more splicing; Tetrahymena group I intron in knt gene, E. coli kanamycin selection, DiMSum; sequences stand for … in CUCUCU…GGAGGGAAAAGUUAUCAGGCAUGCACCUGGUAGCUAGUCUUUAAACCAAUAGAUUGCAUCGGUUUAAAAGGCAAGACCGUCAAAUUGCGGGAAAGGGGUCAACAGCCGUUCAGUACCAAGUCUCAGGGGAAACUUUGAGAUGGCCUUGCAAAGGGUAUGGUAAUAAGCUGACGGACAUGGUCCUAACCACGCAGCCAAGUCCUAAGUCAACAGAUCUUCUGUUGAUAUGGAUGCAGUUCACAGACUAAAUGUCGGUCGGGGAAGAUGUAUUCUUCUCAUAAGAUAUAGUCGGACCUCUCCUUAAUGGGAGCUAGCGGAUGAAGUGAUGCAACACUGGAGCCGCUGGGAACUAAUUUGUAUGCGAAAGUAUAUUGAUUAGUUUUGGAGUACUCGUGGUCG
- APPLIED_CONDITIONS: 30 °C
REPORTED_ENDPOINT: self-splicing fitness (ln)

In [3]: df
Out[3]:
     biopolymer_sequence  value_observed
 0  UACGAGCAAUAUUACGAGUU           -2.32
 1  AGAAAGCAAUAUUACGCAAU           -2.18
 2  UUCAAGCAAUAUUACGGUUC           -4.02
 3  AGCUAGCAAUAUUACGUUAC           -3.52
 4  AUCCAGCAAUAUUACGUCGG           -2.71
 5  CGUAAGCAAUAUUACGAGGC           -3.73
 6  GGUGAGCAAUAUUACGUAAC           -2.35
 7  UGCUAGCAAUAUUACGGAAG            -3.4
 8  AGAGAGCAAUAUUACGGGUA           -4.04
 9  UCUAAGCAAUAUUACGCCGC           -2.69
10  CACAAGCAAUAUUACGAACG          -0.561
11  CCCUAGCAAUAUUACGCUUC           -2.66
12  UACCAGCAAUAUUACGAAGG           -2.22
13  CUUGAGCAAUAUUACGAGGA           -3.08
14  GCGUAGCAAUAUUACGAUGU           -2.18
15  CUUGAGCAAUAUUACGUAAU           -2.79
16  CGCAAGCAAUAUUACGGGGG           -3.39
17  GUUAAGCAAUAUUACGCAAG           -1.84
18  CACGAGCAAUAUUACGCUUU           -3.71
19  ACUUAGCAAUAUUACGCAUC           -2.69
20  CGUUAGCAAUAUUACGUGAG           -1.59
21  UACCAGCAAUAUUACGGGAA           -0.38
22  GCUAAGCAAUAUUACGCUCG          -0.473
23  CGUAAGCAAUAUUACGGAGA           -2.79
24  CAUAAGCAAUAUUACGUCCU           -3.78
25  UUCAAGCAAUAUUACGGCCA           -1.31
26  AACCAGCAAUAUUACGCGCU           -2.01
27  AUCAAGCAAUAUUACGAGUA           -1.56
28  AACAAGCAAUAUUACGGCGA         -0.0322
29  UCACAGCAAUAUUACGUUUC            -3.8
30  UUUAAGCAAUAUUACGCAAG           -1.43
31  UAUGAGCAAUAUUACGUGAG           -2.91
32  AUGCAGCAAUAUUACGGGUA           -1.56
33  AAUCAGCAAUAUUACGCGAG          -0.887
34  GUUAAGCAAUAUUACGAACA           -2.16
35  CGCUAGCAAUAUUACGUUCA           -1.39
36  UCCCAGCAAUAUUACGAGGC           -2.23
37  AGUAAGCAAUAUUACGGGGC           -3.29
38  UACCAGCAAUAUUACGUCCG           -0.95
39  UGUGAGCAAUAUUACGUGAC           -4.58
40  GCAAAGCAAUAUUACGCAAC           -3.02
41  ACUGAGCAAUAUUACGGGCA           -2.07
42  GCCUAGCAAUAUUACGCGCU           -2.19
43  GGUGAGCAAUAUUACGUUAA           -1.89
44  CUUGAGCAAUAUUACGCUCU           -2.57
45  GCCUAGCAAUAUUACGUUUG           -2.89
46  AGGGAGCAAUAUUACGGUUA           -2.53
47  GGAUAGCAAUAUUACGCUGG           -2.25
48  AAGCAGCAAUAUUACGGCAA         -0.0737
49  AUCCAGCAAUAUUACGUAAG           -1.59
50  GUAAAGCAAUAUUACGAACU          -0.845
51  UUGGAGCAAUAUUACGAAUU           -1.68
52  UCAUAGCAAUAUUACGUUUA           -4.13
53  UGUCAGCAAUAUUACGUGAC            -2.8
54  CUUAAGCAAUAUUACGAAAG            -2.9
55  CUGGAGCAAUAUUACGAAUG           -1.88
56  GAGAAGCAAUAUUACGAUUC          -0.752
57  AAUAAGCAAUAUUACGCUUG           -1.39
58  CGGAAGCAAUAUUACGUAAG          -0.619
59  UUUCAGCAAUAUUACGGGAC           -2.81
60  AGUAAGCAAUAUUACGCCGG           -2.45
61  ACAGAGCAAUAUUACGUCUU           -1.48
62  CCGUAGCAAUAUUACGUUUA           -3.43
63  CAUCAGCAAUAUUACGUGCG          -0.149
64  GGUUAGCAAUAUUACGGGCU           -3.26
65  CGAAAGCAAUAUUACGUUAG           -0.97
66  UGGCAGCAAUAUUACGGAAU           -2.54

Provenance of the data: the supplement of paper PMC7877785
